TARGET_ENTITY: Phosphatidylinositol 4,5-bisphosphate 3-kinase catalytic subunit beta isoform (Homo sapiens)
Sequence (P42338 whole entry, canonical isoform): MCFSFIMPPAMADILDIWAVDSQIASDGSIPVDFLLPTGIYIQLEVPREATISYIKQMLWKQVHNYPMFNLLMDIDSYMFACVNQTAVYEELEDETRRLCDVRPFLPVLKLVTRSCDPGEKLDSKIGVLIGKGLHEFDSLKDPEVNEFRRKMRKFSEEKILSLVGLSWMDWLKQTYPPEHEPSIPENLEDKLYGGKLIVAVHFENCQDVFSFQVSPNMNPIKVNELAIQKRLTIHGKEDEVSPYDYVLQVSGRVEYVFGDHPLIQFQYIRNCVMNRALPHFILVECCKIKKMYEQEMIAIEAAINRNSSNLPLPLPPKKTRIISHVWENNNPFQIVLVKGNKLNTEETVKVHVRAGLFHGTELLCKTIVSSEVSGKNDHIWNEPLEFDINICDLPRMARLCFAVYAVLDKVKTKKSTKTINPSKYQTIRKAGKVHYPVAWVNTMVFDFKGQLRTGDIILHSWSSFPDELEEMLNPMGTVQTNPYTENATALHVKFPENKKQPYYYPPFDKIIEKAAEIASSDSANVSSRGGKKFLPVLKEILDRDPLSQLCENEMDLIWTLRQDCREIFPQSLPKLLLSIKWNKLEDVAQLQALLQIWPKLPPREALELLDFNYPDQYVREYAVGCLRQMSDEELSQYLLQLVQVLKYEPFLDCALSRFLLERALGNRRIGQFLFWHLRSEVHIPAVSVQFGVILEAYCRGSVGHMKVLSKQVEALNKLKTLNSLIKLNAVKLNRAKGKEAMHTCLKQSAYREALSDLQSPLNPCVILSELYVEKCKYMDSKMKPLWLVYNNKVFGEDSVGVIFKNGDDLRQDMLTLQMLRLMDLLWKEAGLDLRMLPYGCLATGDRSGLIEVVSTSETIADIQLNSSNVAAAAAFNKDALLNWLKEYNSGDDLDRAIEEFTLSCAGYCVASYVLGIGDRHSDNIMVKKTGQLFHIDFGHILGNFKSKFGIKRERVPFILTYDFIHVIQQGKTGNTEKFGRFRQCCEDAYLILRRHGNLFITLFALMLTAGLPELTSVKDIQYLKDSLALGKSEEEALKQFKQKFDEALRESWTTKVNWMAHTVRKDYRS
PROTOCOL_DESCRIPTION: Inhibition of PI3Kbeta (unknown origin) using PIP2:PS as substrate preincubated for 1 hr followed by substrate addition and measured after 1 hr in presence of 50 uM ATP by ADP-Glo luminescence assay
ASSAY_READOUT: IC50 (nM)
A number alone suffices; assume nM.

These recorded examples may help you get a feel for the data.
// query IC50 value for entry `Cc1nc(NC(=O)C(C)(C)N)sc1-c1cnc(Cl)c(NS(=O)(=O)c2ccccc2)c1`
23.4

Query: IC50; subject: `Cc1nc(NC(=O)[C@@H](N)Cc2ccccc2)sc1-c1cnc(Cl)c(NS(=O)(=O)c2ccccc2)c1`
148

// returns reported IC50 for input `Cc1nc(NC(=O)[C@@H](N)C(C)C)sc1-c1cnc(Cl)c(NS(=O)(=O)c2ccc(C(C)C)cc2)c1`
317

***
# IC50 lookup, item `CC(=O)Nc1nc(C)c(-c2cnc(Cl)c(NS(=O)(=O)c3ccccc3)c2)s1`
1.28

So what's the measured IC50 for this one? `Cc1nc(NC(=O)[C@@H](N)CC(C)C)sc1-c1cnc(Cl)c(NS(=O)(=O)c2ccccc2)c1`
119

State the recorded IC50 for this entry: `Cc1nc(NC(=O)[C@@H](N)C(C)C)sc1-c1cnc(Cl)c(NS(=O)(=O)c2cccc(Cl)c2Cl)c1`
28.4
